tested on: larvae of the banded cucumber beetle (Diabrotica balteata); experiment: Diabrotica balteata spray test; type: in vivo; details: Diabrotica balteata, 168 h; 100 g/ha (=32 μg/well), wheat seeds, after 7 days; read-out: efficacy (seedlings grown)
Property: pest or weed control at 32 µg/disc, 100 g/ha; scope: individual compounds
measured_attribute: pest or weed control at 32 µg/disc, 100 g/ha (%)

compound	assay_result
Cc1nc([C@H](C)NC(=O)c2cc(OC(F)(F)F)cc(C3CC3)c2)n(-c2cnc(C(=O)N(C)C)cn2)n1 [Example I-047]	80
CCN(C)C(=O)c1cnc(-n2ncnc2[C@H](C)NC(=O)c2cc(OC(F)(F)F)cc(S(C)(=O)=O)c2)cn1 [Example I-018]	100
C[C@H](NC(=O)c1cc(C(F)(F)F)cc(C(F)(F)F)c1)c1ncnn1-c1cnc(C(=O)N(C)CC2CC2)cn1 [Example I-008]	100

###

system: brown planthopper (Nilaparvata lugens); experiment: Nilaparvata lugens spray test; type: in vivo; settings: Nilaparvata lugens, in Oryza sativa, 96 h

chemical_structure	mortality at 500 g/ha [%]
C[C@H](NC(=O)c1cc(OC(F)(F)F)cc(OC(F)(F)F)c1)c1ncnn1-c1cnc(C(=O)N(C)C2CC2)cn1	100
CCN(C)C(=O)c1cnc(-n2nc(C)nc2[C@H](C)NC(=O)c2cc(C(F)(F)F)cc(C(F)(F)F)c2)cn1	100
C[C@H](NC(=O)c1cc(C(F)(F)F)cc(C(F)(F)F)c1)c1ncnn1-c1cnc(C(=O)N(C)CC2CC2)cn1	100
C[C@H](NC(=O)c1cc(OC(F)(F)F)cc(S(C)(=O)=O)c1)c1ncnn1-c1cnc(C(=O)N(C)C)cn1	100
Cc1nc([C@H](C)NC(=O)c2cc(OC(F)(F)F)cc(OC(F)(F)F)c2)n(-c2cnc(C(=O)N(C)C3CC3)cn2)n1	90
C[C@H](NC(=O)c1cc(C(F)(F)F)cc(C(F)(F)F)c1)c1ncnn1-c1cnc(C(N)=O)cn1	100
CCN(C)C(=O)c1cnc(-n2ncnc2[C@H](C)NC(=O)c2cc(C(F)(F)F)cc(C(F)(F)F)c2)cn1	100
Cc1nc([C@H](C)NC(=O)c2cc(OC(F)(F)F)cc(C3CC3)c2)n(-c2cnc(C(=O)N(C)C3CC3)cn2)n1	100
Cc1nc([C@H](C)NC(=O)c2cc(C(F)(F)F)cc(C(F)(F)F)c2)n(-c2cnc(C(=O)NC3CC3)cn2)n1	100
C[C@H](NC(=O)c1cc(OC(F)(F)F)cc(C2CC2)c1)c1ncnn1-c1cnc(C(=O)N(C)C)cn1	90
CNC(=O)c1cnc(-n2ncnc2[C@H](C)NC(=O)c2cc(OC(F)(F)F)cc(C3CC3)c2)cn1	100
C[C@H](NC(=O)c1cc(OC(F)(F)F)cc(S(C)(=O)=O)c1)c1ncnn1-c1cnc(C(=O)N(C)C2CC2)cn1	100
Cc1nc([C@H](C)NC(=O)c2cc(OC(F)(F)F)cc(C3CC3)c2)n(-c2cnc(C(=O)N(C)C)cn2)n1	100
Cc1nc([C@H](C)NC(=O)c2cc(C(F)(F)F)cc(C(F)(F)F)c2)n(-c2cnc(C(=O)N(C)C3CC3)cn2)n1	100

###

System: green peach aphid (Myzus persicae)
Assay: Myzus persicae spray test (MYZUPE)
Type: in vivo
Conditions: in Brassica rapa, foliar, 120 h
Procedure: Myzus persicae—Spray Test Solvent: 78.0 parts by weight acetone • 1.5 parts by weight dimethylformamide Emulsifier: alkylarylpolyglycol ether To produce a suitable preparation of active compound, 1 part by weight of active compound is mixed with the stated amount of solvents and is diluted with water, containing an emulsifier concentration of 1000 ppm, to the desired concentration. […] After 5 days mortality in % is determined. […] After the specified period of time, mortality in % is determined. […]

chemical_structure	mortality at 100 g/ha
C[C@H](NC(=O)c1cc(OC(F)(F)F)cc(C2CC2)c1)c1ncnn1-c1cnc(C(=O)N(C)C)cn1	90%
CCN(C)C(=O)c1cnc(-n2ncnc2[C@H](C)NC(=O)c2cc(C(F)(F)F)cc(C(F)(F)F)c2)cn1	100%
Cc1nc([C@H](C)NC(=O)c2cc(OC(F)(F)F)cc(C3CC3)c2)n(-c2cnc(C(=O)N(C)C3CC3)cn2)n1	90%
C[C@H](NC(=O)c1cc(OC(F)(F)F)cc(S(C)(=O)=O)c1)c1ncnn1-c1cnc(C(=O)NC2CC2)cn1	100%
C[C@H](NC(=O)c1cc(OC(F)(F)F)cc(S(C)(=O)=O)c1)c1ncnn1-c1cnc(C(N)=O)cn1	90%
C[C@H](NC(=O)c1cc(OC(F)(F)F)cc(S(C)(=O)=O)c1)c1ncnn1-c1cnc(C(=O)N(C)C2CC2)cn1	90%
CNC(=O)c1cnc(-n2ncnc2[C@H](C)NC(=O)c2cc(OC(F)(F)F)cc(S(C)(=O)=O)c2)cn1	90%
C[C@H](NC(=O)c1cc(C(F)(F)F)cc(C(F)(F)F)c1)c1ncnn1-c1cnc(C(N)=O)cn1	90%
Cc1nc([C@H](C)NC(=O)c2cc(C(F)(F)F)cc(C(F)(F)F)c2)n(-c2cnc(C(=O)NC3CC3)cn2)n1	90%
CCN(C)C(=O)c1cnc(-n2ncnc2[C@H](C)NC(=O)c2cc(OC(F)(F)F)cc(S(C)(=O)=O)c2)cn1	100%
CNC(=O)c1cnc(-n2nc(C)nc2[C@H](C)NC(=O)c2cc(C(F)(F)F)cc(C(F)(F)F)c2)cn1	90%
Cc1nc([C@H](C)NC(=O)c2cc(C(F)(F)F)cc(C(F)(F)F)c2)n(-c2cnc(C(=O)N(C)C3CC3)cn2)n1	90%
Cc1nc([C@H](C)NC(=O)c2cc(OC(F)(F)F)cc(C3CC3)c2)n(-c2cnc(C(=O)N(C)C)cn2)n1	90%
CCN(C)C(=O)c1cnc(-n2nc(C)nc2[C@H](C)NC(=O)c2cc(C(F)(F)F)cc(C(F)(F)F)c2)cn1	100%
C[C@H](NC(=O)c1cc(OC(F)(F)F)cc(S(C)(=O)=O)c1)c1ncnn1-c1cnc(C(=O)N(C)C)cn1	100%

###

Property: mortality at 100 g/ha; scope: individual compounds
tested on: green peach aphid (Myzus persicae); assay: Myzus persicae spray test (MYZUPE); format: in vivo; conditions: in Brassica rapa, foliar, 120 h

chemical_structure	value_unit	mortality at 100 g/ha
C[C@H](NC(=O)c1cc(OC(F)(F)F)cc(C2CC2)c1)c1ncnn1-c1cnc(C(=O)N(C)C2CC2)cn1	%	90
Cc1nc([C@H](C)NC(=O)c2cc(C(F)(F)F)cc(C(F)(F)F)c2)n(-c2cnc(C(=O)N(C)C)cn2)n1	%	90
CNC(=O)c1cnc(-n2ncnc2[C@H](C)NC(=O)c2cc(OC(F)(F)F)cc(C3CC3)c2)cn1	%	90
Cc1nc([C@H](C)NC(=O)c2cc(C(F)(F)F)cc(C(F)(F)F)c2)n(-c2cnc(C(N)=O)cn2)n1	%	100

###

test system: adult mosquitoes Aedes aegypti strain MONHEIM; experiment: Aedes aegypti test (AEDSAE surface treatment & contact assay); format: in vivo; conditions: surface concentration 4 mg/m^2, 30 min exposure, 24 hours after contact, read-out: efficacy (mortality)
Property: mortality at 4 mg/m2; scope: individual compounds

chemical_structure	system_under_test	mortality at 4 mg/m2
CNC(=O)c1cnc(-n2ncnc2[C@H](C)NC(=O)c2cc(OC(F)(F)F)cc(C3CC3)c2)cn1	adult mosquitoes Aedes aegypti strain MONHEIM	80 to 100%
CNC(=O)c1cnc(-n2ncnc2[C@H](C)NC(=O)c2cc(OC(F)(F)F)cc(S(C)(=O)=O)c2)cn1	adult mosquitoes Aedes aegypti strain MONHEIM	80 to 100%
CNC(=O)c1cnc(-n2ncnc2[C@H](C)NC(=O)c2cc(C(F)(F)F)cc(C(F)(F)F)c2)cn1	adult mosquitoes Aedes aegypti strain MONHEIM	80 to 100%
C[C@H](NC(=O)c1cc(OC(F)(F)F)cc(C2CC2)c1)c1ncnn1-c1cnc(C(=O)N(C)C)cn1	adult mosquitoes Aedes aegypti strain MONHEIM	80 to 100%
C[C@H](NC(=O)c1cc(C(F)(F)F)cc(C(F)(F)F)c1)c1ncnn1-c1cnc(C(=O)N(C)C2CC2)cn1	adult mosquitoes Aedes aegypti strain MONHEIM	80 to 100%
C[C@H](NC(=O)c1cc(C(F)(F)F)cc(C(F)(F)F)c1)c1ncnn1-c1cnc(C(=O)N(C)CC2CC2)cn1	adult mosquitoes Aedes aegypti strain MONHEIM	80 to 100%

###

Property: mortality at 100 g/ha; scope: individual molecules
test system: green peach aphid (Myzus persicae); experiment: Myzus persicae spray test (MYZUPE); assay type: in vivo; conditions: in Brassica rapa, foliar, 120 h

chemical_structure	system_under_test	mortality at 100 g/ha [%]
C[C@H](NC(=O)c1cc(C(F)(F)F)cc(C(F)(F)F)c1)c1ncnn1-c1cnc(C(=O)N(C)C)cn1	green peach aphid (Myzus persicae)	100
C[C@H](NC(=O)c1cc(C(F)(F)F)cc(C(F)(F)F)c1)c1ncnn1-c1cnc(C(=O)N(C)C2CC2)cn1	green peach aphid (Myzus persicae)	90
CNC(=O)c1cnc(-n2ncnc2[C@H](C)NC(=O)c2cc(C(F)(F)F)cc(C(F)(F)F)c2)cn1	green peach aphid (Myzus persicae)	90
C[C@H](NC(=O)c1cc(C(F)(F)F)cc(C(F)(F)F)c1)c1ncnn1-c1cnc(C(=O)N(C)CC2CC2)cn1	green peach aphid (Myzus persicae)	90
